- Tested on: H4
- EXPERIMENT_SUMMARY: Compound is evaluated for the inhibition of [125I]T3 uptake by H4 rat hepatoma cells at 0.1 mM
- Assay type: functional
READOUT_LABEL: inhibition at 100 µM
Quick note: number first, unit second.

                  molecule_smiles  assayed_target  observed_measurement
0         O=C(O)c1ccccc1Nc1ccccc1              H4                   28%
1           Cc1cccc(Nc2ccccc2)c1C              H4                 35.4%
2     Cc1cccc(Nc2ccccc2C(=O)O)c1C              H4                 60.9%
3      O=C(O)c1ccccc1Nc1cccc(O)c1              H4                  6.6%
4  O=C(O)Cc1ccccc1Nc1c(Cl)cccc1Cl              H4                   38%

Note: attention shifts to another entry.
The value of inhibition at 100 µM measured for the molecule O=C(O)c1ccccc1Nc1cccc(Cl)c1 turned out to be 51.4%
